test system: MS2 coat protein; experiment: apparent KD of MS2 coat protein; designed switch direction (-1 OFF switch, 1 ON switch): -1; higher = weaker reporter binding; details: input ligand: none
// apparent KD of MS2 coat protein lookup, one value per entry
Form entry: value (nM) — number only.

Worked examples follow.
Query Sequence | Measured Number
UAUUAUCAAGCAAGAUCCCACAUGAGGAUCACCCAUGUGCUCGUCUUAUUUCUGUCCUUAUUGUUCUCUCGUCUAAU [JR_STOV1_v2_Sub096] (Eterna round: R97, puzzle: Sensor, turn-off variant 1) | 39.9
CACAACAGAGGAUAUACAUGAGGAUCACCCAUGUGUUCCAGCUAGGAGACUAGCAAGUGUAGAAGGCUGUUGUG [Mat - Exclusion 3 - JL Mod - D10] (Eterna round: R97, puzzle: Exclusion 3) | 501
UCGAUGUGAGGAUAUAUAUGCAGUAAUCCUUAUAUUUUAUAACUUGAGGAUCACCCAAGUAGAAGGCGCGACGU [JR_Ex2_Sub058] (Eterna round: R97, puzzle: Exclusion 2) | 31.1
GAGCUGUGAGGAUAUACAUGAGGAUCACCCAUGUUAAGGAAGUGGUGAAUAAUUUAGUGUAGAAGGCACUUAUU [JR_Ex3_Sub023] (Eterna round: R97, puzzle: Exclusion 3) | 116

Prompt line: Can you look up the measured apparent KD of MS2 coat protein of AGGGACGGCUGAGGAUAUAUGUAGAGUGAGAUAGUAGAAGGCAGACAUGAGGAUCACCCAUGUAUCGGUCCUCAUAUCUCGUAU [Default title] (Eterna round: R96, puzzle: Exclusion NG 1) for me?
Response line: 17.7

----------
system: K4 kissing-loop RNA reporter; test: apparent KD of K4 kissing-loop reporter; higher = weaker reporter binding; conditions: Eterna round: R107; input ligand: none
Experimental Readout: apparent KD of K4 kissing-loop reporter (nM)
Form entry: value (nM) — number only.

Worked examples follow.
Query Sequence | Study Target | apparent KD of K4 kissing-loop reporter (nM)
UGGAGUUGACGAAAAGUCAACUCCCGAGAAGGAGCGGACGAAAGUCCAGGUAGGUCGCUCGCUACCAGUGAUGUUGGUACUGAAA | K4 kissing-loop RNA reporter | 126
GCCGUAGAUUGAAGGAGCGCCUUCUUACCAAGAGUGAUGUUCUUUGGUACCAUGUUCAGUAGGCAGGUAGGUCGCAAUCUACGGC | K4 kissing-loop RNA reporter | 332
AGUAGAGCAUCAGAUACCAGACAGAACUGAUGGUAAGGAGUGAUGUUCCUUAAUCAGCUUGUCCCUUGGCAGCUGAUAGUAGUCA [#14 K4 Theophylline B Same State] | K4 kissing-loop RNA reporter | 431
UUCUACGAGUGAUGUUCGUAGUGUAAUCGCUAGGAUAUCGUUUUUUCGAGAAGGAGCGUCGAAGUGAUACGAAAGUAUCGCUUCG [FMN A 13] | K4 kissing-loop RNA reporter | 300
AGUACAAUGGCGGCCGCCACUCAACAGCAGAUCAAAGAUCUGCUUCACUCAGUGAUGUUGAGUGAGAGGACCGGGCCUUUGUACA [Omei KL Tryp B SS B v4] | K4 kissing-loop RNA reporter | 783

Please find the next sequence below.
Prompt line: Can you look up the measured apparent KD of K4 kissing-loop reporter of GCAAUUCUCAGUGAUGUUGAGUAAUCGGAAGGAGCGCGUGAAAACGCAGGUAGGUCGCCGAAACAUGAAGUAUCUUCGUGUUUGC [Arginine A K4 24] for me?
Response line: 215

----------
system: MS2 coat protein; assay: apparent KD of MS2 coat protein; higher = weaker reporter binding; settings: Eterna round: R107; input ligand: theophylline 20 uM
// apparent KD of MS2 coat protein lookup, one value per entry
Form entry: value (nM) — number only.

Query Sequence | Measured Number
UGUAUGGACUGAAGGAGCGCCUCAAAAUAACAUGAGGAUCACCCAUGUGGCGAAAGCCUUGGGCAGGUAGGUCGCAGUCCAUACU [ArgBX 1 #StaticStem] | 76.2
CCCAGUUAGAUCAAAGGAAUUAUACUCGAAGGAGCGUCAUAGUAGGCAGGUAGGUCGCGAGACAUGAGGAUCACCCAUGUAGAGA [azqmullin] | 51.2
UCUUUCUAUGUAGAUACCAGCAUGUUAUCUUUCUUUUGACAUGAGGAUCACCCAUGUAAAUGCCCUUGGCAGCUACAUUUUCUUU [SSTHB #3] | 20.9
GCACCAGGUACGGAUACCAGACAUUGCCGUUAGGGUGAACAUGAGGAUCACCCAUGUUUUGUCCCUUGGCAGCCGUACCUGGUGC [ETB NP+V+V2 #7 Same Structure] | 14.7

Prompt line: Can you look up the measured apparent KD of MS2 coat protein of AAUAAACAUGAGGAUCACCCAUGUUGUUGACGAGGACCGGUACGGCCGCCACUCGACAUGAGGAUCACCCAUGUUGUCACAUGAG [Same State Tryptophan A] for me?
Response line: 190

Prompt line: Can you look up the measured apparent KD of MS2 coat protein of ACGACAUGAGGAUCACCCAUGUAAGGUGAUACCAGACGAAGUAAUGUCCCUUGGCAGCACACGCAUAGUUGCGAUUAUUGUACGA [JR_SSTheophyA_Sub007] for me?
Response line: 522

Prompt line: Can you look up the measured apparent KD of MS2 coat protein of AAAAUCCUACCUGAGGAUCACCCUGGUGAAGGAGCGCCCGAAAGGGCAGGUAGGUCGCACCUGAGGAUCACCCUGGUACCUAAAA [ArgAX 29 #DoubleMs2 #OpenEnded #AlternativeMS2] for me?
Response line: 57.4

Prompt line: Can you look up the measured apparent KD of MS2 coat protein of CGCGCGACAUGAGGAUCACCCAUGUUCCCUCGAGGACCGGUACGGCCGCCACUCGAGGACAUGAGCAUCAGCCAUGUACCGGUCA [Default title] for me?
Response line: 54.6

Prompt line: Can you look up the measured apparent KD of MS2 coat protein of GCCGCGGCCGCGAUACACAUGGGUGUGUAACGAGGACCGGUACGGCCGCCACUCGAGAUGGUGCACAUGAGGAUCACCCAUGUGC [Exclusion Tryp A GF15] for me?
Response line: 14.1

Prompt line: Can you look up the measured apparent KD of MS2 coat protein of CGCUGGCCACAUGAGGAUCACCCAUGUGAAGGAGCGGCGAAUAAGCCAGGUAGGUCGCGCAUGAAUAAAUCAUGUAGGUUGCGAA [XArg-A 11 V2] for me?
Response line: 14.9

Prompt line: Can you look up the measured apparent KD of MS2 coat protein of AAUCGUAAGGCGGCCGCCACUACACAUGAGGAUCACCCAUGUCUCGCAGGCUUGCGUUGGGAUAGUAGGACCGGGCCAGUAAUAA [Exclusion - Tryptophan B (Freestyle 14)] for me?
Response line: 28.8

Prompt line: Can you look up the measured apparent KD of MS2 coat protein of UGUAUGUGAUCUGAUACCAGUCCAACUGGUAAAACACGAGGAUCACCCGUGUAAAAUUGGGACCCUUGGCAGCAGAUCGCAUACU for me?
Response line: 51.9

----------
system: K4 kissing-loop RNA reporter; assay: apparent KD of K4 kissing-loop reporter; higher = weaker reporter binding; conditions: Eterna round: R107; input ligand: arginine 13.2 mM;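 further: bound reporter read as fluorescence of individual clusters on recovered sequencing chips by microscopy, with normalized cluster intensities fitted with a binding model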
// apparent KD of K4 kissing-loop reporter lookup, one value per entry
Form entry: value (nM) — number only.

Worked examples follow.
Query Sequence | Study Target | apparent KD of K4 kissing-loop reporter / nM
AGACUACCACACUGUCAAUAGACAGUGAAUUAGGAUAUGCUGAUAAGCAGAAGGAGUGAUGUUCCGAGGUAGUCAAUAAAAUAAU [FmnAX 13 U30+G66] | K4 kissing-loop RNA reporter | 204
UGACUGGACUGAAGGAGCGCGAAACUCCUAGUGAUGUUAGGACAACGAGACAAAGUCUCGACGCAGGUAGGUCGCAGUCUAGUCU | K4 kissing-loop RNA reporter | 111

Please find the next sequence below.
Prompt line: Can you look up the measured apparent KD of K4 kissing-loop reporter of AGCUCAGAGUGACUCGAUAAGAGUCACAAACGAGGACCGGUACGGCCGCCACUCGAAAUAACGAGAGUGAUGUUUUCGCUGAGCA [FiskerMod 6 - Jieux - Same State Tryptophan A] for me?
Response line: 630

----------
system: MS2 coat protein; experiment: apparent KD of MS2 coat protein; higher = weaker reporter binding; details: Eterna round: R107; input ligand: arginine 13.2 mM
Binary call on apparent KD of MS2 coat protein: label 1 from 0.04 µM upward, label 0 beneath that.

Prompt line: Assess whether reported apparent KD of MS2 coat protein for AGCUCGCAUCCUCUAGCGUCAAAGACGCCUCGAGGACCGGUACGGCCGCCACUCGAUAUGAGGAUCACCCAUAUCAAAGCGAGCA [TrypAX 2 #SwitchBubble #AlternativeMS2 #MS2Late #CuTurnoff] sits at 0.04 µM or higher.
Response line: label 0
